biological target: Streptavidin (Streptomyces avidinii) (UniProt P22629); assay: streptavidin binders on small-molecule microarray, primary screen, artefact control for SMM compound annotation, biophysical, 635/667 nm fluorescence (AID 1147); conditions: streptavidin binding, higher = more signal;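 note: signal reflects streptavidin binding to arrayed compounds as a control protein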
Sequence (P22629 whole entry, looked up): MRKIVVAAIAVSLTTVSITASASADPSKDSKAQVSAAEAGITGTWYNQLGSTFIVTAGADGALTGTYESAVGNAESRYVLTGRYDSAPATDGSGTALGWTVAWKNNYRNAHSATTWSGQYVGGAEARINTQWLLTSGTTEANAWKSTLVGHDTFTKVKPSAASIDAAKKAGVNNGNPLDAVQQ
Measured composite z-score accompanies every entry in the list below.
Give only the figure.

| compound | composite z-score |
| --- | --- |
| CC[C@@H]1C=C(C(=O)O)[C@H](c2cccc(Cl)c2)N1S(=O)(=O)c1ccc(C)cc1 | 0.326 |
| C=C[C@H](C)[C@@H](OC(=O)Nc1ccc(SC)cc1)c1ccc(OCCO)cc1 | -0.363 |

// "Cc1ccc(S(=O)(=O)N2[C@@H](c3ccccc3)C(C(=O)O)=C[C@H]2C(C)(C)C)cc1" : composite z-score value = 1.52

// "C[C@]1(C(=O)NCC(F)(F)F)c2ccccc2C(=O)N(Cc2cc(C(F)(F)F)cc(C(F)(F)F)c2)[C@H]1c1ccc(CO)cc1" : composite z-score value = -0.7

// "CC(=O)NCCCC[C@@H]1NC(=O)[C@H]2C[C@@H](C(=O)NCCCCCN)[C@@H](c3ccc(O)cc3)N2C1=O" : composite z-score value = 0.947

// CN1C2C=C(c3ccc(CO)cc3)C(C3C(=O)N(C(N)=O)C(=O)C32)C1C1CC1 (configuration not stated) : composite z-score value = 0.0747

// "CCCC=C(CCC)[C@@H](NC(=O)c1ccc(C(=O)OC)cc1)c1ccc(C(=O)OC)cc1" : composite z-score value = 0.239

// C=CCC(OC(C)=O)[C@@H]1[C@@H](N(Cc2ccc(-c3ccccc3)cc2)C(=O)Cc2ccc(OC)cc2)c2cc(OCCCO)ccc2N1C(=O)Cc1ccc(OC)cc1 (some centres not stated) : composite z-score value = 0.222

// CC1CC/C=C\[C@H]2OC34C=CCN(C(C)C)C(=O)[C@H]3N(C(C)CO)C(=O)[C@@H]4C2C(=O)O1 (some centres not stated) : composite z-score value = -0.447

---

experiment: HepG2 liver cancer cell viability effects, profiling panel, resazurin fluorescence, 24 h, PK04 Diversity Set (AID 1172); settings: higher = more signal
measurement_name: z-score
Give only the figure.

Some compounds with known z-score results, for comparison:
| compound | z-score |
| --- | --- |
| Cc1ccc(S[C@]2(C(=O)NC(C)C)CC(=O)N(Cc3ccccc3)[C@@H]2c2ccc(CO)cc2)cc1 | 0.15 |
| [N-]=[N+]=NCc1ccccc1[C@H]1OC(c2ccc(OCCCO)cc2)=N[C@@]1(CCS(=O)(=O)c1ccccc1)C(=O)O | 0.086 |
| CC(C)(C)OC(=O)N1[C@@H](C=C(Br)Br)COC1(C)C | 0.373 |
| C=CC[C@H](O)c1ccc(O)c2ccccc12 | -0.129 |
| C=C(COC)C(=O)CC[C@@H](OC(=O)c1ccccc1-c1ccccc1C(=O)O)c1ccccc1OCCO | 0.078 |
| CCCN1C(=O)[C@@]2(c3ccc([N+](=O)[O-])cc3)CC(=O)N(C3CCCCC3)[C@@H]2c2ccc(CO)cc21 | -0.225 |

Let us examine a further case.
// "COCCCNC(=O)[C@]1(Cc2ccccc2CN=[N+]=[N-])N=C(c2ccc(OCCCO)cc2)O[C@@H]1c1ccccc1N=[N+]=[N-]" : z-score value = -1.99

---

tested on: XIP peptide (Xip251-270); assay: small-molecule binders of XIP peptide, primary screen, biochemical, small-molecule microarray, fluorescence 635/667 nm, 0.5 µg/mL protein (AID 1183); conditions: small-molecule microarray binding, fluorescence 635 nm; higher = more signal
Measured composite z-score accompanies every entry in the list below.
Give only the figure.

| compound | composite z-score |
| --- | --- |
| Cc1ccc(S[C@]2(C(=O)NCCN3CCOCC3)CC(=O)N(C(C)C)[C@@H]2c2ccc(CO)cc2I)cc1 | 0.93 |
| CCCCCCc1nc(-c2ccc(OC)nc2)c(C)c2c1[Si](C(C)C)(C(C)C)OC2 | -0.7 |
| C[C@H]1C2[C@H](Cc3ccccc3)NC(=O)[C@]23C(=O)N[C@@H](Cc2ccccc2)C(=O)N2CCC[C@H]2C(=O)NC/C=C/CC/C=C/C3[C@@H]2O[C@]12C (stereo not given in full) | 0.457 |
| CS(=O)(=O)CCOC(=O)C1=CC(CCCO)=CC(C2CC2)N(Cc2sc3ccccc3c2Cl)C=C1C(=O)OCCS(C)(=O)=O (stereo not given) | 0.257 |
| C[C@]12C(=O)N(CCO)[C@@H]3C(=O)N(c4ccc(Cl)cc4)CC=CC31O[C@@H]1/C=C\CCCOC(=O)C12 (stereo not given in full) | 0.913 |
| CC1C2C(CCCO)=CC(C3C(=O)N(C)C(=O)C23)N1Cc1cccc(OC(F)(F)F)c1 (stereo not given) | 0.806 |

// "CC(C)[Si]1(C(C)C)OCc2cc(-c3ccc(-c4ccc(Cl)c(Cl)c4)o3)nc(-c3ccc(Oc4ccccc4)cc3)c21" : composite z-score value = 0.548

// "C=C(COC)C(=O)CC[C@H](OC(C)=O)c1ccc(CO)o1" : composite z-score value = 0.626

// "CCOC(=O)C[C@H]1[C@H](OC(=O)c2cc3ccccc3oc2=O)[C@@H](NC(=O)Cc2ccc(OC)cc2)c2cc(OCCCO)ccc2N1C(=O)Cc1ccc(OC)cc1" : composite z-score value = 0.0609

// "C=CC[C@H](O)c1ccc(O)c2ccccc12" : composite z-score value = 0.512

// "CC(C)(C)OC(=O)CC[C@]1(C(N)=O)N=C(c2ccc(OCCCO)cc2)O[C@H]1c1ccccc1N=[N+]=[N-]" : composite z-score value = 0.351

// "C=C(COC)/C(=C/C[C@@H](OC(=O)c1ccncc1)c1ccccc1OCCO)c1cnc2ccccc2c1" : composite z-score value = 0.745

// "CCOC(=O)C[C@H]1[C@H](OC(=O)c2ccc(-c3ccccc3)cc2)[C@@H](NC(=O)C2CCCCC2)c2cc(OCCCO)ccc2N1C(=O)Cc1ccc(OC)cc1" : composite z-score value = -0.355

// "COC(=O)[C@@]1(Cc2ccccc2)[C@H]2c3cc(C(=O)N(C)C)n(Cc4ccc(Cl)c(C(F)(F)F)c4)c3C[C@H]2CN1C(=O)c1ccccc1" : composite z-score value = 0.485

// "COc1ccc([Si](C)(C)[C@H]2[C@H](CC(=O)N(CCO)Cc3ccccc3)O[C@@]3(C(=O)N(Cc4ccc(N5C(=O)c6cccc7cccc5c67)cc4)c4ccccc43)[C@@H]2C)cc1" : composite z-score value = 0.587

// "COC(=O)C(CC#Cc1ccc2c(c1)[C@]1(C(=O)N2)[C@H](C(=O)NC[C@H](O)c2ccccc2)[C@H]2C(=O)O[C@H](c3ccccc3)[C@H](c3ccccc3)N2[C@@H]1c1ccc(O)cc1)C(=O)OC" : composite z-score value = 0.418

// CN1C2C=C(c3ccc(CO)cc3)C(C3C(=O)N(C(N)=O)C(=O)C32)C1C1CC1 (stereo not given) : composite z-score value = 0.0909

// "C[C@]1(C(=O)NCC(F)(F)F)c2ccccc2C(=O)N(Cc2cc(C(F)(F)F)cc(C(F)(F)F)c2)[C@H]1c1ccc(CO)cc1" : composite z-score value = 0.21

// "[N-]=[N+]=NCc1ccccc1[C@H]1OC(c2ccc(OCCCO)cc2)=N[C@@]1(CCS(=O)(=O)c1ccccc1)C(=O)O" : composite z-score value = 0.446

// "CC(C)(C)OC(=O)N1[C@@H](C=C(Br)Br)COC1(C)C" : composite z-score value = -0.0146

// "O=C1N(Cc2ccccc2)c2ccccc2C[C@@]12N=C(c1ccc(OCCCO)cc1)O[C@H]2c1ccccc1" : composite z-score value = 0.541

// "O=C1O[C@@H](c2ccccc2)[C@@H](c2ccccc2)N2[C@@H](c3ccccc3OCCO)[C@]3(C(=O)Nc4ccc(C#CC5(O)CCCCCC5)cc43)[C@@H](C(=O)N3CCCCCCC3)[C@H]12" : composite z-score value = 0.878

---

assay: Plasmodium falciparum growth inhibition, primary screen, strain 3D7, DAPI fluorescence, 100 nL (AID 1184);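 note: parasites grown inside human red blood cells in medium with human serum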; conditions: P. falciparum 3D7 growth, 3 d, higher = more signal
Each record gets a class by z-score: bottom bin (below -1), middle bin (-1 to below -0.05), top bin (-0.05 or more)

Completed entries (count: 3):
| compound | answer_label |
| --- | --- |
| O=C1O[C@H](c2ccccc2)[C@H](c2ccccc2)N2[C@H]1[C@@H](C(=O)N1CCCCCCC1)[C@]1(C(=O)Nc3ccc(C#CCCO)cc31)[C@H]2c1ccc(O)cc1 | middle bin |
| COc1ccc(-c2cc3c(c(CCc4ccccc4)n2)[Si](C(C)C)(C(C)C)O[C@H]3c2ccccc2)cn1 | bottom bin |
| CC1C2C(CCCO)=CC(C3C(=O)N(C(N)=O)C(=O)C23)N1Cc1cccc(OC(F)(F)F)c1 (stereo not given) | middle bin |

[in] Sort into band: "COC(=O)[C@@]1(Cc2ccccc2)[C@H]2c3cc(C(=O)N(C)C)n(CCF)c3C[C@H]2CN1C(=O)c1ccccc1"
[out] middle bin

[in] Sort into band: "CCOC(=O)C1=CC[C@@H](c2ccccc2)N(S(=O)(=O)c2ccc(C)cc2)[C@@H]1C#N"
[out] middle bin

[in] Sort into band: "[N-]=[N+]=Nc1ccccc1C[C@]1(C(=O)N2CCCCC2)N=C(c2ccc(OCCCO)cc2)O[C@H]1c1ccccc1"
[out] bottom bin
